Below, each entry is listed alongside its reported IC50.
System: HCC38 breast cancer cell line
Assay: Growth inhibition assay (CellTiter-Glo)
Conditions: read-out: ADC potency, IC50, HCC38, 4-days treatment, 3000 cells per well

{"molecule": "Ab11-CZ (conjugate) VH: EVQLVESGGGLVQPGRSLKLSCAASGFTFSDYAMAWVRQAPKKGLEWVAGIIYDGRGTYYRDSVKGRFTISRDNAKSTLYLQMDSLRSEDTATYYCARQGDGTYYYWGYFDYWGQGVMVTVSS VL: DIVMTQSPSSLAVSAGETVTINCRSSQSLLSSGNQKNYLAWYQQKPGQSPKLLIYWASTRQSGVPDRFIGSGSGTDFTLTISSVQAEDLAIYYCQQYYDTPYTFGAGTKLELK", "IC50 [nM]": 1.14}
{"molecule": "Ab13-CZ (conjugate) VH: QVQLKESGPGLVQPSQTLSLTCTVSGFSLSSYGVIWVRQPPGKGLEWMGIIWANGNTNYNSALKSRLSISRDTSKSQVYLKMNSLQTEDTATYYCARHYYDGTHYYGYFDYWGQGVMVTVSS VL: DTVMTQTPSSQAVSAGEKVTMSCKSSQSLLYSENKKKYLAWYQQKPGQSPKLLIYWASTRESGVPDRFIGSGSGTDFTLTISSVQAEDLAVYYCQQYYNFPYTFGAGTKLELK", "IC50 [nM]": 0.787}
{"molecule": "Ab10-CZ (conjugate) VH: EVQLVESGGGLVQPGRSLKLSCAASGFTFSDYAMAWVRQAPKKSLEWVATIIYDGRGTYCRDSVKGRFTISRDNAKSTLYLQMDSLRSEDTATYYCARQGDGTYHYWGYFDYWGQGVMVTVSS VL: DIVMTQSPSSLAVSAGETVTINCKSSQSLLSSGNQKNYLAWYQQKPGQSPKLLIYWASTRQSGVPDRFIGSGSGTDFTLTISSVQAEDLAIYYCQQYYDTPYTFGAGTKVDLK", "IC50 [nM]": 1.16}
{"molecule": "Ab14-CZ (conjugate) VH: EVKLQQSGDELVRPGASVKISCKASGYTFTSYSMHWVKERPGQGLEWIGAIFPIIGTTEYNQKFKGKATLTADKSSNTANMELSRLTSEDSAVYYCARVYLSYFDYWGQGVMVTVSS VL: DIQMTQSPSFLSASVGDRVTINCKASQNINKYLDWYQRKHGEAPKLLIYNTNNLQTGIPSRFSGSGSGTDYTLTISSLQPEDVATYFCLQHSSRYTFGAGTKLELK", "IC50 [nM]": 0.798}
{"molecule": "Ab15-CZ (conjugate) VH: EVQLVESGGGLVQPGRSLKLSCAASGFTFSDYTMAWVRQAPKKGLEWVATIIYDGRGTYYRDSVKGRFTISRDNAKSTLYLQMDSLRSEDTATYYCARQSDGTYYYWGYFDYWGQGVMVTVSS VL: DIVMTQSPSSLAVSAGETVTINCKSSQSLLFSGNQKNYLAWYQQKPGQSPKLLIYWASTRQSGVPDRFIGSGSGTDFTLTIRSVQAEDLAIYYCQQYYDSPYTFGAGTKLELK", "IC50 [nM]": 1.06}
{"molecule": "Ab12-CZ (conjugate) VH: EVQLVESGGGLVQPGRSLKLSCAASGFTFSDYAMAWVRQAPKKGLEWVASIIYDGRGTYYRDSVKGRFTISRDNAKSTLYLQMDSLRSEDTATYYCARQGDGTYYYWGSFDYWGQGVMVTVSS VL: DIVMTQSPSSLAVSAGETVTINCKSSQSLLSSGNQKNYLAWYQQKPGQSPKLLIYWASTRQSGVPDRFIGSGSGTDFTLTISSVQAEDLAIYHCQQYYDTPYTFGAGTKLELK", "IC50 [nM]": 0.685}
